assay: yeast growth modulation, basal conditions, primary screen, YJM789 clinical isolate, OD600, 24 h (AID 1089);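 further: growth of clinical yeast isolate S. cerevisiae YJM 789 seeded 1000 cells per well; test concentration not given here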; conditions: S. cerevisiae YJM789 growth, higher = more signal, called active from +8 up or from −8 down
Listed next: entries and their corresponding z-score.
Just the number, please, no unit attached.

Reference set, count: 5
Compound	z-score
CC1(C)[C@@H]2CC(C(O)C3C=CC4C(=O)N(c5ccccc5)C(=O)C4N3Nc3ccc([N+](=O)[O-])cc3)=C[C@H]1C2 (some centres not stated)	-0.0209
CC(C)N1C(=O)C[C@@](C(=O)NCC(F)(F)F)(c2ccc([N+](=O)[O-])cc2)[C@H]1c1ccc(CO)cc1	-0.804
O=C1O[C@H](c2ccccc2)[C@H](c2ccccc2)N2[C@H]1[C@@H](C(=O)N1CCCCCCC1)[C@]1(C(=O)Nc3ccc(C#CCCO)cc31)[C@H]2c1ccccc1OCCO	2.09
CC[C@@H]1C=C(C(=O)O)[C@H](c2ccc(Br)cc2)N1S(=O)(=O)c1ccc(C)cc1	-0.564
CCCC#C[Si](O[C@H](CC)c1cn(Cc2cccc(Cl)c2)nn1)(C(C)C)C(C)C	-1.19

## Input For the compound C=C(COC)/C(=C/C[C@@H](OC(C)=O)c1ccc(OCCO)cc1)c1cnc2ccccc2c1 , report z-score.
## Output -0.938

## Input State its z-score for this compound: NC(=O)N1C(=O)C2C(C1=O)C1C=C(c3ccc(CO)cc3)C2C(c2cccs2)N1Cc1cccc(OC(F)(F)F)c1 (configuration not stated)
## Output -1.7
